- TEST DETAILS: in vivo
- CONDITION SUMMARY: rat, po, 10 mg/kg, Excretion rate (% of dose) Urine
READOUT NAME: dose excreted at 24 h (%)

- NC1CCN(c2c(F)cc3c(=O)c(C(=O)O)cn(C4CC4)c3c2Cl)C1 (stereo not shown): 21.7

* * *

- Tested on: Alcaligenes sp.
- TEST DETAILS: MIC, in vitro antibacterial activity (clinical isolates)
- Assay type: cell-based
- CONDITION SUMMARY: No. of strains 9
READOUT NAME: MIC (µg/mL)

• NC1CCN(c2c(F)cc3c(=O)c(C(=O)O)cn(C4CC4)c3c2Cl)C1 (stereo not shown) = 0.78
• CC1COc2c(N3CCN(C)CC3)c(F)cc3c(=O)c(C(=O)O)cn1c23 (stereo not shown) = 6.25
• CC1CN(c2c(F)cc3c(=O)c(C(=O)O)cn(C4CC4)c3c2Cl)CCN1 (stereo not shown) = 6.25
• CCn1cc(C(=O)O)c(=O)c2cc(F)c(N3CCNCC3)cc21 = 100

* * *

- Test system: M. morganii
- TEST DETAILS: MIC, in vitro antibacterial activity (clinical isolates)
- Type: cell-based
- CONDITION SUMMARY: Morganella morganii, No. of strains 8
This listing pairs compounds with measured MIC.
READOUT NAME: MIC (mg/L)

• CCn1cc(C(=O)O)c(=O)c2cc(F)c(N3CCNCC3)cc21 = 0.05
• CC1COc2c(N3CCN(C)CC3)c(F)cc3c(=O)c(C(=O)O)cn1c23 (stereo not shown) = 0.1
• NC1CCN(c2c(F)cc3c(=O)c(C(=O)O)cn(C4CC4)c3c2Cl)C1 (stereo not shown) = 0.025
• CC1CN(c2c(F)cc3c(=O)c(C(=O)O)cn(C4CC4)c3c2Cl)CCN1 (stereo not shown) = 0.1

* * *

- Test system: E. coli
- TEST DETAILS: MIC, in vitro antibacterial activity (clinical isolates)
- Type: cell-based
- CONDITION SUMMARY: Escherichia coli, No. of strains 25
This listing pairs compounds with measured MIC.
READOUT NAME: MIC (µg/mL)

- CC1CN(c2c(F)cc3c(=O)c(C(=O)O)cn(C4CC4)c3c2Cl)CCN1 (stereo not shown): 0.025
- CC1COc2c(N3CCN(C)CC3)c(F)cc3c(=O)c(C(=O)O)cn1c23 (stereo not shown): 0.1
- CCn1cc(C(=O)O)c(=O)c2cc(F)c(N3CCNCC3)cc21: 0.1
- NC1CCN(c2c(F)cc3c(=O)c(C(=O)O)cn(C4CC4)c3c2Cl)C1 (stereo not shown): 0.013

* * *

This listing pairs compounds with measured MIC.
- Tested on: Bacteroides sp.
- TEST DETAILS: MIC, in vitro antibacterial activity (clinical isolates)
- Assay type: cell-based
- CONDITION SUMMARY: No. of strains 17
READOUT NAME: MIC (µg/mL)

- CC1CN(c2c(F)cc3c(=O)c(C(=O)O)cn(C4CC4)c3c2Cl)CCN1 (stereo not shown): 0.39
- CC1COc2c(N3CCN(C)CC3)c(F)cc3c(=O)c(C(=O)O)cn1c23 (stereo not shown): 3.13
- NC1CCN(c2c(F)cc3c(=O)c(C(=O)O)cn(C4CC4)c3c2Cl)C1 (stereo not shown): 0.1
- CCn1cc(C(=O)O)c(=O)c2cc(F)c(N3CCNCC3)cc21: 50

* * *

This listing pairs molecules with measured MIC.
- Tested on: S. epidermidis
- TEST DETAILS: MIC, in vitro antibacterial activity (clinical isolates)
- Format: cell-based
- CONDITION SUMMARY: Staphylococcus epidermidis, No. of strains 10
READOUT NAME: MIC

* NC1CCN(c2c(F)cc3c(=O)c(C(=O)O)cn(C4CC4)c3c2Cl)C1 (stereo not shown) | 0.05 µg/mL
* CC1COc2c(N3CCN(C)CC3)c(F)cc3c(=O)c(C(=O)O)cn1c23 (stereo not shown) | 0.39 µg/mL
* CC1CN(c2c(F)cc3c(=O)c(C(=O)O)cn(C4CC4)c3c2Cl)CCN1 (stereo not shown) | 0.1 µg/mL
* CCn1cc(C(=O)O)c(=O)c2cc(F)c(N3CCNCC3)cc21 | 0.78 µg/mL

* * *

- TEST DETAILS: in vivo
- CONDITION SUMMARY: mouse, iv
READOUT NAME: LD50 (mg/kg)

• NC1CCN(c2c(F)cc3c(=O)c(C(=O)O)cn(C4CC4)c3c2Cl)C1 (stereo not shown) = 242

* * *

- Test system: N. gonorrhoeae
- TEST DETAILS: MIC, in vitro antibacterial activity (clinical isolates)
- Format: cell-based
- CONDITION SUMMARY: Neisseria gonorrhoeae, No. of strains 16
READOUT NAME: MIC (µg/mL)

* CC1COc2c(N3CCN(C)CC3)c(F)cc3c(=O)c(C(=O)O)cn1c23 (stereo not shown) | 0.05
* CC1CN(c2c(F)cc3c(=O)c(C(=O)O)cn(C4CC4)c3c2Cl)CCN1 (stereo not shown) | 0.006
* NC1CCN(c2c(F)cc3c(=O)c(C(=O)O)cn(C4CC4)c3c2Cl)C1 (stereo not shown) | 0.013
* CCn1cc(C(=O)O)c(=O)c2cc(F)c(N3CCNCC3)cc21 | 0.1

* * *

- TEST DETAILS: in vivo
- CONDITION SUMMARY: rat, po, 10 mg/kg, Excretion rate (% of dose) Bile
READOUT NAME: dose excreted at 24 h (%)

* NC1CCN(c2c(F)cc3c(=O)c(C(=O)O)cn(C4CC4)c3c2Cl)C1 (stereo not shown) | 13.4

* * *

This listing pairs molecules with measured MIC.
- System: P. vulgaris
- TEST DETAILS: MIC, in vitro antibacterial activity (clinical isolates)
- Format: cell-based
- CONDITION SUMMARY: Proteus vulgaris, No. of strains 6
READOUT NAME: MIC (µg/mL)

* NC1CCN(c2c(F)cc3c(=O)c(C(=O)O)cn(C4CC4)c3c2Cl)C1 (stereo not shown) | 0.05
* CCn1cc(C(=O)O)c(=O)c2cc(F)c(N3CCNCC3)cc21 | 0.05
* CC1COc2c(N3CCN(C)CC3)c(F)cc3c(=O)c(C(=O)O)cn1c23 (stereo not shown) | 0.1
* CC1CN(c2c(F)cc3c(=O)c(C(=O)O)cn(C4CC4)c3c2Cl)CCN1 (stereo not shown) | 0.05

* * *

- System: E. faecalis
- TEST DETAILS: MIC, in vitro antibacterial activity (clinical isolates)
- Assay type: cell-based
- CONDITION SUMMARY: Enterococcus faecalis, No. of strains 5
READOUT NAME: MIC (µg/mL)

• CC1COc2c(N3CCN(C)CC3)c(F)cc3c(=O)c(C(=O)O)cn1c23 (stereo not shown) = 3.13
• CC1CN(c2c(F)cc3c(=O)c(C(=O)O)cn(C4CC4)c3c2Cl)CCN1 (stereo not shown) = 0.78
• CCn1cc(C(=O)O)c(=O)c2cc(F)c(N3CCNCC3)cc21 = 6.25
• NC1CCN(c2c(F)cc3c(=O)c(C(=O)O)cn(C4CC4)c3c2Cl)C1 (stereo not shown) = 0.2

* * *

- Tested on: P. maltophilia
- TEST DETAILS: MIC, in vitro antibacterial activity (clinical isolates)
- Format: cell-based
- CONDITION SUMMARY: Stenotrophomonas maltophilia, No. of strains 9
READOUT NAME: MIC (µg/mL)

- NC1CCN(c2c(F)cc3c(=O)c(C(=O)O)cn(C4CC4)c3c2Cl)C1 (stereo not shown): 0.78
- CC1COc2c(N3CCN(C)CC3)c(F)cc3c(=O)c(C(=O)O)cn1c23 (stereo not shown): 6.25
- CCn1cc(C(=O)O)c(=O)c2cc(F)c(N3CCNCC3)cc21: 25
- CC1CN(c2c(F)cc3c(=O)c(C(=O)O)cn(C4CC4)c3c2Cl)CCN1 (stereo not shown): 1.56
